Tested Target: Broad substrate specificity ATP-binding cassette transporter ABCG2 (Homo sapiens, UniProt Q9UNQ0)
Sequence (Q9UNQ0 whole entry): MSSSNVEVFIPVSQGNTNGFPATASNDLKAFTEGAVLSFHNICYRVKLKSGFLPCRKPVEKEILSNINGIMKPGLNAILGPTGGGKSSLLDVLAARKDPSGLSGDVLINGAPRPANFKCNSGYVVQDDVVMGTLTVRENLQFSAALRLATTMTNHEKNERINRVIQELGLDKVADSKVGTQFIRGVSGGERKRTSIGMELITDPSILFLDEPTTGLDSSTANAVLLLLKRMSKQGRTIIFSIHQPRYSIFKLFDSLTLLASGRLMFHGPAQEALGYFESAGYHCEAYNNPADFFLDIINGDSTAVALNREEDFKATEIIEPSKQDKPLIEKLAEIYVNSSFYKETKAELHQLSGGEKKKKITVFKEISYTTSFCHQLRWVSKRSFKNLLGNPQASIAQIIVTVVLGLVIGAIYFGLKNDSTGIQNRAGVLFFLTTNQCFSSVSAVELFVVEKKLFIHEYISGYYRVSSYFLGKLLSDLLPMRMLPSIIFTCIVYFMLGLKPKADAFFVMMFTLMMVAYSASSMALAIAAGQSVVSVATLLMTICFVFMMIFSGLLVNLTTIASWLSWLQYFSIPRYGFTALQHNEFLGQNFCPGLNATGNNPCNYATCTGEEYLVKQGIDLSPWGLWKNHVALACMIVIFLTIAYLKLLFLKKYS
Protocol Description: Inhibition of human ABCG2 transfected in human HEK293 cells assessed as inhibition of mitoxantrone efflux measured after 30 mins by FACS Calibur cytometric analysis
pIC50: −log10 of the molar value.
Quantity: pIC50

# Compound, Result
rows = [
    ("CC1CC(=O)c2c3c(n(CCc4ccccc4)c2C1)-c1cc(OCCCCCCOc2ccc4c(c2)-c2c(c5c(n2CCc2ccccc2)CC(C)CC5=O)C4=O)ccc1C3=O (stereo not drawn)", "< 5.00"),
    ("COc1cccc(CCn2c3c(c4c(OCCCCCCCCCCCCOc5ccc6c(c5)-c5c(c7c(n5CCc5ccccc5)CC(C)CC7=O)C6=O)cccc42)C(=O)c2ccccc2-3)c1 (stereo not drawn)", "< 5.00"),
    ("COc1cccc(CCn2c3c(c4c(OCCCCCCCCOc5cccc6c5c5c(n6CCc6cccc(OC)c6)-c6ccccc6C5=O)cccc42)C(=O)c2ccccc2-3)c1", "< 5.00"),
    ("COc1cccc(CCn2c3c(c4c(OCCCCCCCCCCOc5ccc6c(c5)-c5c(c7c(n5CCc5ccccc5)CC(C)CC7=O)C6=O)cccc42)C(=O)c2ccccc2-3)c1 (stereo not drawn)", "< 5.00"),
    ("COc1cccc(CCn2c3c(c4c(OCCCCCCCCCCOc5cccc6c5c5c(n6CCc6cccc(OC)c6)-c6ccccc6C5=O)cccc42)C(=O)c2ccccc2-3)c1", "< 5.00"),
    ("CC1CC(=O)c2c3c(n(CCc4ccccc4)c2C1)-c1cc(OCCCCCCCCCCOc2ccc4c(c2)-c2c(c5c(n2CCc2ccccc2)CC(C)CC5=O)C4=O)ccc1C3=O (stereo not drawn)", "< 5.00"),
    ("CC1CC(=O)c2c3c(n(CCc4ccccc4)c2C1)-c1cc(OCCCCCCCCOc2ccc4c(c2)-c2c(c5c(n2CCc2ccccc2)CC(C)CC5=O)C4=O)ccc1C3=O (stereo not drawn)", "< 5.00"),
    ("CC1CC(=O)c2c3c(n(CCc4ccccc4)c2C1)-c1cc(OCCCCCCCCCCCCOc2ccc4c(c2)-c2c(c5c(n2CCc2ccccc2)CC(C)CC5=O)C4=O)ccc1C3=O (stereo not drawn)", "< 5.00"),
]

These entries and their values trace back to ChEMBL document CHEMBL4818994.
